tested.system: human Yes1 enzyme (Homo sapiens, UniProt P07947)
Construct: made in house
Sequence (P07947 whole entry): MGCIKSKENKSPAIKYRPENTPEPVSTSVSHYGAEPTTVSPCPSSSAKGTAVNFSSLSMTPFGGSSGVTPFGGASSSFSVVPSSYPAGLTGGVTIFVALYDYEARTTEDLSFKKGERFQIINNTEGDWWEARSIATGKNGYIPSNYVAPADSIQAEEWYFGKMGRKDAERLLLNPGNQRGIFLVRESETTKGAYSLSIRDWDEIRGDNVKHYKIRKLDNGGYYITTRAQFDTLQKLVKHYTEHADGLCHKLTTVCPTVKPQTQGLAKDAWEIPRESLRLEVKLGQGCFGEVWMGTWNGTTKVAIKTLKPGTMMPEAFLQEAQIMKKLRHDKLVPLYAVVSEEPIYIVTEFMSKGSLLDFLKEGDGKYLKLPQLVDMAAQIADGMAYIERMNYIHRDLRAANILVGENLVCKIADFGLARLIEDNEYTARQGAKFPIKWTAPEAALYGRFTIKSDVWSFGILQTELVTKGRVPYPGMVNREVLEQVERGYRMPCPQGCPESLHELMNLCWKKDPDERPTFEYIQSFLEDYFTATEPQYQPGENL
test.method.notes: Yes1 enzyme inhibitory activity (time-resolved fluorometry, biotinylated peptide phosphorylation)
Format: biochemical
experimental.setup: read-out: YES_IC50
measured.endpoint: IC50 (nM)

(1) Cc1cc(-n2ncc(C(=O)c3cc4cc(OC5CCN(C6CCCC6)CC5)c(-c5ccccc5C)cc4[nH]3)c2N)ccc1Oc1ccccc1F
(2) Cc1cc(Oc2ccccc2F)ccc1-n1ncc(C(=O)c2cc3cc(OC4CCN(C(C)C)CC4)c(N4CCOC4=O)cc3[nH]2)c1N
(3) Cc1cc(Oc2ccccc2F)ccc1-n1ncc(C(=O)c2cc3cc(F)c(N4C(=O)NC(C)(C)C4=O)cc3[nH]2)c1N
Q. Order the entries above from lowest to highest IC50. Answer by writing out the labels in the requested order.
A. 2, 3, 1
